Listed below: half-life values for each entry.
Assay: Half life in Sprague-Dawley rat at 0.5 mg/kg, iv measured upto 24 hrs by LC-MS/MS analysis
Type: ADME, organism-based
Conditions: in vivo
measured attribute: half-life (min)

[[record]]
smiles_record = "CC(C)n1cnnc1-c1cccc(NC(=O)c2cc3c(cc2F)OC(C)(C)C(=O)N3)n1"
measured_attribute = "half-life"
recorded_value = 44.4

[[record]]
smiles_record = "O=C1COc2cc(F)c(C(=O)Nc3cccc(-c4nncn4C4CC4)n3)cc2N1"
measured_attribute = "half-life"
recorded_value = 58.2

[[record]]
smiles_record = "O=C1CCc2cc(F)c(C(=O)Nc3cccc(-c4nncn4C4CC4)n3)cc2N1"
measured_attribute = "half-life"
recorded_value = 43.2

[[record]]
smiles_record = "CC(C)n1cnnc1-c1cccc(NC(=O)c2cc3c(cc2F)OC(C)(C)C(=O)N3C)n1"
measured_attribute = "half-life"
recorded_value = 42.6

